The values you see were collected from patent US5760072A.

METHOD DESCRIPTION: Stability assay in PBS buffer pH 6.8, 37° C., HPLC
Type: physicochemical
COND: pbs buffer, pH 6.8; read-out: half time of decomposition to paclitaxel (converted)
Structures can show the parent of a compound that is named as a salt.
RECORDED METRIC: half-life (h)
One number for each entry, in h.

Data request: Fill blank: measured half-life of the compound CC(=O)O[C@H]1C(=O)[C@@]2(C)[C@H]([C@H](OC(=O)c3ccccc3)[C@]3(O)C[C@H](OC(=O)[C@H](OC(=O)Cc4ccccc4NC(=O)O[C@@H]4O[C@H](C(=O)O)[C@@H](O)[C@H](O)[C@H]4O)[C@@H](NC(=O)c4ccccc4)c4ccccc4)C(C)=C1C3(C)C)[C@]1(OC(C)=O)CO[C@@H]1C[C@@H]2O [Prodrug 2a, sodium salt] is ____.
Data returned: 3

* * *

Assign solubility to each entry below.
METHOD DESCRIPTION: Solubility in water
Format: physicochemical
COND: water; read-out: Concentrations reached in water
Structures can show the parent of a compound that is named as a salt.

[[record]]
compound = "CC(=O)O[C@H]1C(=O)[C@@]2(C)[C@H]([C@H](OC(=O)c3ccccc3)[C@]3(O)C[C@H](OC(=O)[C@H](OC(=O)CCc4ccccc4NC(=O)O[C@@H]4O[C@H](C(=O)O)[C@@H](O)[C@H](O)[C@H]4O)[C@@H](NC(=O)c4ccccc4)c4ccccc4)C(C)=C1C3(C)C)[C@]1(OC(C)=O)CO[C@@H]1C[C@@H]2O [Prodrug 2b, sodium salt]"
val = "≥ 10 mM"


For each of the items listed, what is its solubility?
1. CC(=O)O[C@H]1C(=O)[C@@]2(C)[C@H]([C@H](OC(=O)c3ccccc3)[C@]3(O)C[C@H](OC(=O)[C@H](OC(=O)Cc4ccccc4NC(=O)O[C@@H]4O[C@H](C(=O)O)[C@@H](O)[C@H](O)[C@H]4O)[C@@H](NC(=O)c4ccccc4)c4ccccc4)C(C)=C1C3(C)C)[C@]1(OC(C)=O)CO[C@@H]1C[C@@H]2O [Prodrug 2a, sodium salt]
2. CC(=O)O[C@H]1C(=O)[C@@]2(C)[C@H]([C@H](OC(=O)c3ccccc3)[C@]3(O)C[C@H](OC(=O)[C@H](OC(=O)CC(C)(C)CNC(=O)O[C@@H]4O[C@H](C(=O)O)[C@@H](O)[C@H](O)[C@H]4O)[C@@H](NC(=O)c4ccccc4)c4ccccc4)C(C)=C1C3(C)C)[C@]1(OC(C)=O)CO[C@@H]1C[C@@H]2O [Prodrug 1, sodium salt]

Data returned:
1: ≥ 10 mM; 2: ≥ 10 mM
